Tested on: MS2 coat protein
Assay: apparent KD of MS2 coat protein; designed switch direction (-1 OFF switch, 1 ON switch): -1; higher = weaker reporter binding
Settings: input ligand: none
Classification field: enter 1 for apparent KD of MS2 coat protein values not below 40 nM, -1 for values below it.

Consider the following illustrative entries.
primary_sequence="GAUUCGCGAGGAUAUACAGUCGAGUCCAUUACGUGUCUGGGACUUGAGGAUCACCCAAGUAGAAGGCGUCUCAU [salish99_ex2_r4_638] (Eterna round: R97, puzzle: Exclusion 2)" tested_system="MS2 coat protein" label=1
primary_sequence="AGUAAGCUAGGAUAUGCUUUGGGAAAGCAUUCCUUCGAUAAACUUGAGGAUCACCCAAGUAGAAGGAGCUUACA [salish99_ex2_r4_004] (Eterna round: R97, puzzle: Exclusion 2)" tested_system="MS2 coat protein" label=-1
primary_sequence="AUGACAGGACAUGAGGAUCACCCAUGUACACGACCAAUGACCGAGGAUAUCGAUUGCAUGCAGGUCGAGAAGGCGGAGUAUCCA [Eternabot solution 3] (Eterna round: R96, puzzle: Exclusion NG 3)" tested_system="MS2 coat protein" label=-1
primary_sequence="AGAGUGGUGCGAGGAUAUACAUGAGGAUCACCCAUGUAAACGUGUGAGGCAAAGCCUCACACGAUGUAGAAGGCGCACUACUCA [Mat - Exclusion NG 2 - Mod of JL - D15] (Eterna round: R96, puzzle: Exclusion NG 2)" tested_system="MS2 coat protein" label=-1
primary_sequence="UCGCUCCGUGUAGGAUAUCGCCGUUCCACUCGGCGAGAAGGACAUGAGGAUCACCCAUGUAUGUUAUUAUCACGUGUGGCGCGC [Design 53] (Eterna round: R96, puzzle: Exclusion NG 1)" tested_system="MS2 coat protein" label=-1

Hello, I need to know if GGGAAGGGAGGAUAUGAGGGAGAGAACAUGAGGAUCACCCAUGUGAGACCUCAGGAUCGAUCAGAAGGCCCGAUCC [AK-MS2ROC-r4-exclusion5-14] (Eterna round: R97, puzzle: Exclusion 5) has measured apparent KD of MS2 coat protein not below 40 nM. Thanks!
1

Hello, I need to know if CGUGACUCAGGAUAUCUAUAGUAUCACAUGAGGAUCACCCAUGUCCAGCGAAAGCUGGAGGGAGAAGGGAGUCACG [Fiskers Ex 5 - 42] (Eterna round: R96, puzzle: Exclusion 5) has measured apparent KD of MS2 coat protein not below 40 nM. Thanks!
1
